Ref: patent US12441725B2

TARGET OF ASSAY: IDH (endogenous IDH1 R132C) in HT1080 cell (Homo sapiens, UniProt O75874, R132C)
Construct: which harbor endogenous heterozygous IDH1 R132C and R132H mutation respectively and accumulate D-2-HG
PROCEDURE TEXT: Cell-based assay for IDH inhibition (decrease of D-2-HG) in HT1080 cells
RUN CONDITIONS: human fibrosarcoma cell line HT1080, 16 hours treatment, D-2-HG by LC-MS, in triplet
pIC50: −log10 of the molar value.
MEASURE NAME: pIC50

chem_smiles=CCN1Cc2c(ccnc2N[C@@H](C)c2cc(F)c(-c3cc(C(C)(C)F)c(F)cn3)cc2F)C1=O target_of_assay="IDH (endogenous IDH1 R132C) in HT1080 cell (Homo sapiens, UniProt O75874, R132C)" measure_name=pIC50 assay_result="> 7.00"
chem_smiles=CCN1Cc2c(ccnc2N[C@@H](C)c2cc3cc(Cl)ccc3[nH]c2=O)C1=O target_of_assay="IDH (endogenous IDH1 R132C) in HT1080 cell (Homo sapiens, UniProt O75874, R132C)" measure_name=pIC50 assay_result="< 6.00"
chem_smiles=CCN1Cc2c(ccnc2N[C@@H](C)c2ccc(-c3ccc(C(F)(F)F)nc3)c(F)c2)C1=O target_of_assay="IDH (endogenous IDH1 R132C) in HT1080 cell (Homo sapiens, UniProt O75874, R132C)" measure_name=pIC50 assay_result="< 6.00"
chem_smiles=CCN1Cc2c(ccnc2N[C@@H](C)c2ccc(-c3ccnc(C4CCC4)c3)c(F)c2)C1=O target_of_assay="IDH (endogenous IDH1 R132C) in HT1080 cell (Homo sapiens, UniProt O75874, R132C)" measure_name=pIC50 assay_result="6.00 to 6.30"

Quick one: give me pIC50 for each item below, same order please.
1. CCN1Cc2c(ccnc2N[C@@H](C)c2cc(F)c(-c3ccnc(C(C)(C)O)c3)cc2F)C1=O
2. CCN1Cc2c(ccnc2N[C@@H](C)c2cn(-c3ccnc(C(C)(C)C)c3)cn2)C1=O

Output line:
< 6.00
< 6.00

Quick one: give me pIC50 for each item below, same order please.
1. CCN1Cc2c(ccnc2N[C@@H](C)c2cc(F)c(-c3cc(C(C)(C)C)ncn3)cc2F)C1=O
2. CCN1Cc2c(ccnc2N[C@@H](C)c2cc(F)c(-c3ccnc(C4CCCC4)c3)cc2F)C1=O

Output line:
["> 7.00", "6.30 to 7.00"]

====

I'd be grateful if you could share measured IC50 for these entries.
TARGET OF ASSAY: IDH1 R132C (Homo sapiens, UniProt O75874, R132C)
Construct: 6xHis
Sequence (O75874 whole entry R132C): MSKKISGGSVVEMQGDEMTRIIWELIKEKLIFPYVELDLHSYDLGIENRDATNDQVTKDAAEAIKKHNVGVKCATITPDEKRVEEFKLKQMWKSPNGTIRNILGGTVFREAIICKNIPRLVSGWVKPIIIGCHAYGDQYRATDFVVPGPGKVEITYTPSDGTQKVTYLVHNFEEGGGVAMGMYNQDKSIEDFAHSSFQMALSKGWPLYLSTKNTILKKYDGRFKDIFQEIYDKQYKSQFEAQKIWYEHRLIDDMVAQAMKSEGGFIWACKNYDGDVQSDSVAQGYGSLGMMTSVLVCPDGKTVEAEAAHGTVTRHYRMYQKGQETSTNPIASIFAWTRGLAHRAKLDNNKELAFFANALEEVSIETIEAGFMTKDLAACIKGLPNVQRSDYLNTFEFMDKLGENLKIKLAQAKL
PROCEDURE TEXT: Biochemical assay for IDH inhibition (NADPH fluorescence), mutant IDH1 R132C
RUN CONDITIONS: 25 nM IDH1-R132C, 1 hour pre-incubation, in triplet

// below: answered compounds
compound=CCN1Cc2c(ccnc2N[C@@H](C)c2ccc(-c3ccc(C(F)(F)F)cc3)c(F)c2)C1=O measure_name=IC50 assay_result="> 1 µM"
compound=CCN1Cc2c(ccnc2N[C@@H](C)c2ccc(-c3ccnc(C(=O)C4CC4)c3)c(F)c2)C1=O measure_name=IC50 assay_result="> 1 µM"
compound=CCN1Cc2c(ccnc2N[C@@H](C)c2cc(F)c(-c3cc(C(C)(C)F)c(OCOC)cn3)cc2F)C1=O measure_name=IC50 assay_result="< 0.1 µM"

Quick one: give me IC50 for each item below, same order please.
1. CCN1Cc2c(ccnc2N[C@@H](C)c2ccc(Cc3ccnc(C(F)(F)F)c3)c(F)c2)C1=O
2. CCN1Cc2c(ccnc2N[C@@H](C)c2cc(C)c(-c3ccnc(C(F)(F)F)c3)cn2)C1=O
3. CCN1Cc2c(ccnc2N[C@@H](C)c2cc(F)c(-c3cc(C(C)(C)C)ncn3)cc2F)C1=O
4. CCN1Cc2c(ccnc2N[C@@H](C)c2cc(F)c(-c3ccnc(CC4CC4)c3)cc2F)C1=O

Output line:
1: > 1 µM; 2: > 1 µM; 3: < 0.1 µM; 4: 0.5 to 1 µM

Quick one: give me IC50 for each item below, same order please.
1. CCN1Cc2c(ccnc2N[C@@H](C)c2cc(F)c(-c3cc(C(C)(C)C)ncc3F)cc2F)C1=O
2. CCN1Cc2c(ccnc2N[C@@H](C)c2ccc(C3CCCC3)c(F)c2)C1=O
3. CCN1Cc2c(ccnc2N[C@@H](C)c2cc(F)c(-c3cc(C4(F)CC4)cc(C)n3)cc2F)C1=O
4. C[C@H](Nc1nccc2c1CN(CC(F)CF)C2=O)c1ccc(-c2ccnc(C(C)(C)C)c2)c(F)c1 (stereo partly drawn)
5. CCN1Cc2c(ccnc2N[C@@H](C)c2cc(F)c(-c3ccnc(C(C)(C)C)c3)cc2F)C1=O
6. CCN1Cc2c(ccnc2N[C@@H](C)c2cc(F)c(-c3cc(C(C)(C)F)c(C)cn3)cc2F)C1=O
7. CCN1Cc2c(ccnc2N[C@@H](C)c2ccc(Oc3ccc4c(ccn4CCO)c3)c(F)c2)C1=O
8. CCN1Cc2c(ccnc2N[C@@H](C)c2cc(C(C)(C)C)ncc2F)C1=O

Output line:
["< 0.1 µM", "> 1 µM", "< 0.1 µM", "> 1 µM", "< 0.1 µM", "< 0.1 µM", "> 1 µM", "> 1 µM"]

====

TARGET OF ASSAY: IDH (endogenous IDH1 R132C) in HT1080 cell (Homo sapiens, UniProt O75874, R132C)
Construct: which harbor endogenous heterozygous IDH1 R132C and R132H mutation respectively and accumulate D-2-HG
PROCEDURE TEXT: Cell-based assay for IDH inhibition (decrease of D-2-HG) in HT1080 cells
RUN CONDITIONS: human fibrosarcoma cell line HT1080, 16 hours treatment, D-2-HG by LC-MS, in triplet
MEASURE NAME: IC50

chem_smiles=C[C@H](Nc1nccc2c1CN(C(CF)CF)C2=O)c1ccc(-c2ccnc(C(C)(C)C)c2)c(F)c1 assay_result="500 to 1000 nM"
chem_smiles=CCN1Cc2c(ccnc2N[C@@H](C)c2cc(F)c(-c3cc(C#N)ccn3)cc2F)C1=O assay_result="500 to 1000 nM"
chem_smiles=CCN1Cc2c(ccnc2N[C@@H](C)c2cc(F)c(-c3cc(C(C)(C)F)c(F)c(C)n3)cc2F)C1=O assay_result="< 100 nM"
chem_smiles=CCN1Cc2c(ccnc2N[C@@H](C)c2ccc(-c3ccc(C(F)(F)F)cc3)c(F)c2)C1=O assay_result="> 1000 nM"
chem_smiles=CCN1Cc2c(N[C@@H](C)c3ccc(-c4ccc(F)c(C)c4)c(F)c3)ncc(F)c2C1=O assay_result="> 1000 nM"
chem_smiles=CCN1Cc2c(ccnc2N[C@@H](C)c2ccc(-c3ccnc(C(=O)C4CC4)c3)c(F)c2)C1=O assay_result="> 1000 nM"

IC50 in this record for `CCN1Cc2c(N[C@@H](C)c3ccc(-c4ccc(F)c(C)c4)c(F)c3)ncnc2C1=O` : 100 to 500 nM

====

TARGET OF ASSAY: IDH1 R132H (Homo sapiens, UniProt O75874, R132H)
Construct: 6xHis
Sequence (O75874 whole entry R132H): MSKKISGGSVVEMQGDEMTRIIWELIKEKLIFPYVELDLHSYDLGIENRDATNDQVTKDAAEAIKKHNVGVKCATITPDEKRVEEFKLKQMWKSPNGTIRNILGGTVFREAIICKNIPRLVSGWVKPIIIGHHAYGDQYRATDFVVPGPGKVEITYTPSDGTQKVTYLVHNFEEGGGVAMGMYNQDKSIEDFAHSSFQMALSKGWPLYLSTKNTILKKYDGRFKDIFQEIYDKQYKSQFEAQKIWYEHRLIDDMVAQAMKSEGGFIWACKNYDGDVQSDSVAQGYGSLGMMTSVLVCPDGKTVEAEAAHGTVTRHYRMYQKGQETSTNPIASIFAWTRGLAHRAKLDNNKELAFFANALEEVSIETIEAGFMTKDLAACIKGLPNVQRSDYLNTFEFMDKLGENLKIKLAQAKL
PROCEDURE TEXT: Biochemical assay for IDH inhibition (NADPH fluorescence), mutant IDH1 R132H
RUN CONDITIONS: 50 nM IDH1-R132H, 1 hour pre-incubation, in triplet
pIC50: −log10 of the molar value.
I'd be grateful if you could share measured pIC50 for these entries.

// below: answered compounds
chem_smiles=CCN1Cc2c(ccnc2N[C@@H](C)c2cc(F)c(-c3cc(C(F)(F)F)cc(C)n3)cc2F)C1=O assay_result="> 7.00"
chem_smiles=CCN1Cc2c(ccnc2N[C@@H](C)c2ccc(-c3ccnc(C(C)(C)C#N)c3)c(F)c2)C1=O assay_result="6.30 to 7.00"
chem_smiles=CCN1Cc2c(ccnc2N[C@@H](C)c2ccc(-c3ccnc(CC4CC4)c3)c(F)c2)C1=O assay_result="6.30 to 7.00"

# evaluate next
pIC50 in this record for `CCN1Cc2c(ccnc2N[C@@H](C)c2cc(F)c(-c3cc(C(C)(C)F)ncn3)cc2F)C1=O` : > 7.00

====

TARGET OF ASSAY: IDH1 R132C (Homo sapiens, UniProt O75874, R132C)
Construct: 6xHis
PROCEDURE TEXT: Biochemical assay for IDH inhibition (NADPH fluorescence), mutant IDH1 R132C
RUN CONDITIONS: 25 nM IDH1-R132C, 1 hour pre-incubation, in triplet
pIC50: −log10 of the molar value.
MEASURE NAME: pIC50

molecule="CCN1Cc2c(ccnc2N[C@@H](C)c2ccc(Oc3ccc4c(c3)CCN4C)c(F)c2)C1=O [Compound 29]" assay_result="6.00 to 6.30"
molecule="CCN1Cc2c(ccnc2N[C@@H](C)c2cc(F)c(-c3cc(C(C)(C)F)nc(OC)n3)cc2F)C1=O [Compound 141]" assay_result="> 7.00"
molecule="CCN1Cc2c(ccnc2N[C@@H](C)c2cc(F)c(-c3cc(C4(C(F)(F)F)CC4)ccn3)cc2F)C1=O [Compound 124]" assay_result="> 7.00"

Quick one: give me pIC50 for each item below, same order please.
1. CCN1Cc2c(ccnc2N[C@@H](C)c2cc(F)c(O[C@@H]3C[C@@H](C)CC(C)(C)C3)cc2F)C1=O [Compound 23]
2. CCN1Cc2c(ccnc2N[C@@H](C)c2cc(F)c(-c3cc(C(C)(C)F)c(OC)cn3)cc2F)C1=O [Compound 135]
3. CCN1Cc2c(ccnc2N[C@@H](C)c2cc(F)c(-c3cc(C(C)(C)F)c(O)cn3)cc2F)C1=O [Compound 162]
4. CCN1Cc2c(ccnc2N[C@@H](C)c2cc(F)c(-c3cc(C(C)(C)F)ccn3)cc2F)C1=O [Compound 112]

Output line:
> 7.00
> 7.00
6.30 to 7.00
> 7.00

Quick one: give me pIC50 for each item below, same order please.
1. CCN1Cc2c(ccnc2N[C@@H](C)c2cc(F)c(-c3cc(C(F)(F)F)cc(OC)n3)cc2F)C1=O [Compound 142]
2. CCN1Cc2c(ccnc2N[C@@H](C)c2ccc(Nc3ccccc3)c(F)c2)C1=O [Compound 32]
3. CCN1Cc2c(ccnc2N[C@@H](C)c2cc(F)c(-c3cc(C(C)(C)F)cc(C)n3)cc2F)C1=O [Compound 113]
4. CCN1Cc2c(ccnc2N[C@@H](C)c2cc(F)c(-c3cc4c(cn3)COC4(C)C)cc2F)C1=O [Compound 146]
5. CCN1Cc2c(ccnc2N[C@@H](C)c2cc(F)c(-c3cc(C(F)(F)F)ncc3O)cc2F)C1=O [Compound 144]

Output line:
1: 6.30 to 7.00; 2: < 6.00; 3: > 7.00; 4: > 7.00; 5: < 6.00

Quick one: give me pIC50 for each item below, same order please.
1. CCN1Cc2c(ccnc2N[C@@H](C)c2ccc(Oc3ccnc4ccccc34)c(F)c2)C1=O [Compound 30]
2. CCN1Cc2c(ccnc2N[C@@H](C)c2ccc(-n3ccc(C)n3)c(F)c2)C1=O [Compound 59]
3. CCN1Cc2c(ccnc2N[C@@H](C)c2cc(F)c(-c3cc(C(C)(C)F)c(F)cn3)cc2F)C1=O [Compound 137]
4. CCN1Cc2c(ccnc2N[C@@H](C)c2cc(F)c(-c3cc(C(F)(F)F)cc(CF)n3)cc2F)C1=O [Compound 123]
5. CCN1Cc2c(ccnc2N[C@@H](C)c2ccc(C3=CCN(C(C)(C)C)CC3)c(F)c2)C1=O [Compound 35]
6. CCN1Cc2c(ccnc2N[C@@H](C)c2cc(F)c(-c3cc(C(C)(C)F)ncn3)cc2F)C1=O [Compound 130]

Output line:
["< 6.00", "< 6.00", "> 7.00", "> 7.00", "< 6.00", "6.30 to 7.00"]

Quick one: give me pIC50 for each item below, same order please.
1. CCN1Cc2c(ccnc2N[C@@H](C)c2cc(F)c(-c3cc(C(F)(F)F)ncc3OC)cc2F)C1=O [Compound 143]
2. CCN1Cc2c(ccnc2N[C@@H](C)c2cc(F)c(-c3ccnc(C4(O)COC4)c3)cc2F)C1=O [Compound 94]

Output line:
6.30 to 7.00
< 6.00

Quick one: give me pIC50 for each item below, same order please.
1. CCN1Cc2c(ccnc2N[C@@H](C)c2ccc(-c3ccnc(C4(O)CCC4)c3)c(F)c2)C1=O [Compound 78]
2. CCN1Cc2c(ccnc2N[C@@H](C)c2ccc(-c3ccccc3)c(F)c2)C1=O [Compound 80]
3. CCN1Cc2c(ccnc2N[C@@H](C)c2cc(F)c(-c3cc(C(F)(F)F)cc(O)n3)cc2F)C1=O [Compound 157]

Output line:
< 6.00
< 6.00
< 6.00

Quick one: give me pIC50 for each item below, same order please.
1. CCN1Cc2c(ccnc2N[C@@H](C)c2ncc(Cc3ccc(F)c(C)c3)cn2)C1=O [Compound 54]
2. CCN1Cc2c(ccnc2N[C@@H](C)c2ccc(OC3CCCCC3)c(F)c2)C1=O [Compound 14]
3. CCN1Cc2c(ccnc2N[C@@H](C)c2cc(F)c(OC3CC(C)CC(C)(C)C3)cc2F)C1=O (stereo partly drawn) [Compound 22]
4. CCN1Cc2c(ccnc2N[C@@H](C)c2cc(F)c(-c3ccnc(C(F)(F)F)c3)cc2F)C1=O [Compound 88]

Output line:
1. < 6.00
2. < 6.00
3. > 7.00
4. < 6.00

Quick one: give me pIC50 for each item below, same order please.
1. CCN1Cc2c(ccnc2N[C@H](C)c2ccc(Oc3ccccc3)c(F)c2)C1=O [Compound 12]
2. CCN1Cc2c(ccnc2N[C@@H](C)c2cc(F)c(-c3cc(C(C)(C)F)c(COC)cn3)cc2F)C1=O [Compound 147]
3. CCN1Cc2c(N[C@@H](C)c3cn(-c4ccc(F)cc4)cn3)ncc(F)c2C1=O [Compound 57]

Output line:
< 6.00
> 7.00
< 6.00
